Assign pIC50 to each entry below.
Target: dopamine (DA) D-2 receptor (Rattus norvegicus)
Construct: Specifically, rat striatal membranes were used; from tissue; host or cells: rat striatum (membranes)
Sequence (P61169 whole entry): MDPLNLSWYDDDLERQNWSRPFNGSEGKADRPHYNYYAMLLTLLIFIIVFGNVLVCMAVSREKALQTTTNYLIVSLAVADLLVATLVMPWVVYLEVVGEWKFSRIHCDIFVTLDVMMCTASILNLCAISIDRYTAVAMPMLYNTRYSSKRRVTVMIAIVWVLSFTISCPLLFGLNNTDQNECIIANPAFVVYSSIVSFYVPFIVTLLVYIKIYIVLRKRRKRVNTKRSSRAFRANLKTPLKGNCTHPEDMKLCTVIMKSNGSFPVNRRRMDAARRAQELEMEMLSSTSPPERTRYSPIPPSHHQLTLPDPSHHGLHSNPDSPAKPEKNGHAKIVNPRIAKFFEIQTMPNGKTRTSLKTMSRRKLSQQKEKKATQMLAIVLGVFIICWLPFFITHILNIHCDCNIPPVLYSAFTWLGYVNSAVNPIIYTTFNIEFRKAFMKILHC
Assay: TEST A: [3H]-spiperone binding, dopamine (DA) D-2 receptor, rat striatal membranes
Details: 0.5 nM [3H] spiperone, 40 nM ketanserin, pH 7.7, 37° C., 15 min, typical values, read-out: IC50 (drug concentration which produced a 50% displacement) for the displacement of [3H] spiperone
Description: The compounds of Formula I are antagonists of dopamine D-2 receptors, and as such are predicted to be useful as antipsychotic drugs. […] Specifically, rat striatal membranes were used. […] Nonspecific binding to D-2 receptors was measured in the presence of 1.0 μM (+)-butaclamol. […] The amount of drug bound to the membranes was assessed using liquid scintillation counting techniques. […]
Give bare numbers, as −log10 of the molar value.

compound | target.or.test.system | pIC50
CCOCC(=O)NC1CCN(C[C@@]23C[C@@H](c4ccccc42)c2ccc(Cl)cc23)CC1 | dopamine (DA) D-2 receptor (Rattus norvegicus) | 8.05

Okay, now this compound:
Request: Query the reported pIC50 for dopamine (DA) D-2 receptor (Rattus norvegicus); item: CCC(=O)NC1CCN(CC23CC(c4ccccc42)c2ccc(Cl)cc23)CC1 (centres unmarked)
Result: 6.84

Values were extracted from patent US5266570A.
